- Test system: K. pneumoniae No. 42
- Assay name: in vitro antibacterial activity, agar plate dilution method (MIC)
- Assay type: cell-based
- Condition notes: Klebsiella pneumoniae, NO.42, 16 h, read-out: Minimum Inhibitory Concentration (MIC), *K. pneumoniae No. 42, lactamase-producing strain; 10^6 CFU/ml
Measured MIC accompanies every entry in the list below.

Compound	MIC [µg/mL]
CO/N=C(\C(=O)N[C@@H]1C(=O)N2C(C(=O)O)=C(CSc3nc(-c4ccc(O)cc4)c(CC(=O)O)s3)CS[C@H]12)c1csc(N)n1 [compound 17, reference compound]	0.78
Nc1nc(C(=NOC2(C(=O)O)CC2)C(=O)NC2C(=O)N3C(C(=O)O)=C(CSc4nc(-c5ccc(O)c(O)c5)cs4)CSC23)cs1 (stereo not drawn)	0.1
CC(C)O/N=C(\C(=O)N[C@@H]1C(=O)N2C(C(=O)O)=C(CSc3nnc(-c4ccc(O)c(O)c4)o3)CS[C@H]12)c1csc(N)n1	0.025

From: patent US5061794A
